Data origin: ChEMBL document CHEMBL5154816

- measurement target: Bromodomain testis-specific protein (Homo sapiens)
- test summary: Binding affinity to His6-fused BRDT BD1 (unknown origin) assessed as dissociation constant in PBS incubated for 1 hrs by biolayer interferometry analysis
pKd: −log10 of the molar value.
Quick list: pKd per entry.
measured metric: pKd

* Cc1cc(F)cc(C)c1Oc1ccc(C(C)(C)O)cc1-c1cn(C)c(=O)c2cc(-c3cnc(C4CCCCC4)[nH]3)oc12 | 5.48
* Cc1cc(F)cc(C)c1Oc1ccc(C(C)(C)O)cc1-c1cn(C)c(=O)c2cc(-c3cnc(C4CCCC4)[nH]3)oc12 | 5.44

* * *

- measurement target: SWI/SNF-related matrix-associated actin-dependent regulator of chromatin subfamily A member 2 (Homo sapiens)
- test summary: Binding affinity to SMARCA2A (unknown origin) assessed as change in melting temperature at 100 uM incubated for 30 mins by thermal shift assay
measured metric: ΔTm (°C)

• Cc1cc(F)cc(C)c1Oc1ccc(C(C)(C)O)cc1-c1cn(C)c(=O)c2cc(-c3cnc(C4CCCCC4)[nH]3)oc12 = 1
• Cc1sc2c(c1C)C(c1ccc(Cl)cc1)=N[C@@H](CC(=O)OC(C)(C)C)c1nnc(C)n1-2 = -0.25
• Cc1cc(F)cc(C)c1Oc1ccc(C(C)(C)O)cc1-c1cn(C)c(=O)c2cc(-c3cnc(C4CC4)[nH]3)oc12 = 0.75
• Cc1cc(F)cc(C)c1Oc1ccc(C(C)(C)O)cc1-c1cn(C)c(=O)c2cc(-c3cnc(C4CCC4)[nH]3)oc12 = 0.5
• Cc1cc(F)cc(C)c1Oc1ccc(C(C)(C)O)cc1-c1cn(C)c(=O)c2cc(-c3cnc(C4CCCC4)[nH]3)oc12 = 1

* * *

- measurement target: Bromodomain adjacent to zinc finger domain protein 2B (Homo sapiens) (UniProt Q9UIF8)
- Sequence (Q9UIF8 whole entry, the tested form may be a part): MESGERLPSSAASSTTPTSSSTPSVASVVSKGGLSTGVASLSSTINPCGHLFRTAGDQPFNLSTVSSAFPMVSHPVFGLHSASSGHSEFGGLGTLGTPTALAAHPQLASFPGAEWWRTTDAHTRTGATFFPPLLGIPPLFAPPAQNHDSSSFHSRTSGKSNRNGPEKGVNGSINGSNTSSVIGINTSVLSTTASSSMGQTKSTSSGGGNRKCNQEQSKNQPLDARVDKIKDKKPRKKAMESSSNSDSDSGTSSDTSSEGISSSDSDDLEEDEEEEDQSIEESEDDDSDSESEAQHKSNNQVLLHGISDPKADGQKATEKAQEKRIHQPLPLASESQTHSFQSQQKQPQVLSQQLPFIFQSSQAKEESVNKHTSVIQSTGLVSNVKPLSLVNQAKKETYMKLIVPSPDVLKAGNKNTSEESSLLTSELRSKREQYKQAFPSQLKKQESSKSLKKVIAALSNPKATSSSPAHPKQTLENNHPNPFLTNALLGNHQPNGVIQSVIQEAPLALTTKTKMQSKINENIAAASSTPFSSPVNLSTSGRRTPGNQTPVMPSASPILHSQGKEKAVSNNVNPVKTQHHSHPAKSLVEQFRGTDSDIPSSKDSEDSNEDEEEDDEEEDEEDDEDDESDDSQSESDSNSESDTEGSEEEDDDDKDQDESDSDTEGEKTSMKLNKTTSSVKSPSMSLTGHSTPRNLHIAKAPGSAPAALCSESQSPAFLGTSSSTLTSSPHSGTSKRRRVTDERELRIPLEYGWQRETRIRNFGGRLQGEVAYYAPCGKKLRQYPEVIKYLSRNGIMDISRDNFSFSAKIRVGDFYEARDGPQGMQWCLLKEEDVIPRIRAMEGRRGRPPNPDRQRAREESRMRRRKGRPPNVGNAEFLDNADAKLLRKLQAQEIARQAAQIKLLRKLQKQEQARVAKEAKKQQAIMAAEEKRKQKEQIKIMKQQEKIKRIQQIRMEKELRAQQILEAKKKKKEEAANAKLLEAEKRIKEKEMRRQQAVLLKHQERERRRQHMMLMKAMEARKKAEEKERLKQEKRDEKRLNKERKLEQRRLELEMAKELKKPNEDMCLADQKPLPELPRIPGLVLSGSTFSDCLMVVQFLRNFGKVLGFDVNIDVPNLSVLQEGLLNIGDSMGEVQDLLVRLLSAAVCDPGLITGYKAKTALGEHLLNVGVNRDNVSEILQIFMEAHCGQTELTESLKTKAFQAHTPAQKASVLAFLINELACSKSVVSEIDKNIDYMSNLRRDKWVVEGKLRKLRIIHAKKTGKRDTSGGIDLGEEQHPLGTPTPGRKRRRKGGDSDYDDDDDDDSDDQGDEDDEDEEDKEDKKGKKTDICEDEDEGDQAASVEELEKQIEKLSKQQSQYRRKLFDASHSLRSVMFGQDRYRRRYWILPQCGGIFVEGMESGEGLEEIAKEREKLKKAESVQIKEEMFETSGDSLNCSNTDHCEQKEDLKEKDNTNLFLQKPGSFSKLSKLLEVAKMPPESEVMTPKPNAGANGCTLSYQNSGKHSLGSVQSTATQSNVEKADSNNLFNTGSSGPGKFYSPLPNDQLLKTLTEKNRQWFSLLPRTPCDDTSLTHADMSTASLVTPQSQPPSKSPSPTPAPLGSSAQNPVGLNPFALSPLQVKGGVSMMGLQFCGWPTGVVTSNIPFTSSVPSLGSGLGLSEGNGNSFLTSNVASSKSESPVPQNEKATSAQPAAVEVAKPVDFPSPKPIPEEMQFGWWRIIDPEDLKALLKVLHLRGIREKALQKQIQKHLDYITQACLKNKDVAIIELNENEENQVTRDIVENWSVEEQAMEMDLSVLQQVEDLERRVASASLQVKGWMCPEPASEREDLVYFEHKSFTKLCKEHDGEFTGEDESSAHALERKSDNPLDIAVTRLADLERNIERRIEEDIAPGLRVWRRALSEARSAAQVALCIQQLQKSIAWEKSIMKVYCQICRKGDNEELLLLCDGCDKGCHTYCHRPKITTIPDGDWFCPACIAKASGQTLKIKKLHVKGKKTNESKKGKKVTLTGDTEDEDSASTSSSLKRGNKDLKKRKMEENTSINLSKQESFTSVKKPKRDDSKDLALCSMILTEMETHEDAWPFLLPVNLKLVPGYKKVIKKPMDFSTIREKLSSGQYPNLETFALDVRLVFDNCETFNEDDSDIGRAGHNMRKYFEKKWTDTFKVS
- test summary: Binding affinity to BAZ2B (unknown origin) assessed as change in melting temperature at 100 uM incubated for 30 mins by thermal shift assay
measured metric: ΔTm

* Cc1cc(F)cc(C)c1Oc1ccc(C(C)(C)O)cc1-c1cn(C)c(=O)c2cc(-c3cnc(C4CC4)[nH]3)oc12 | -0.75 °C
* Cc1cc(F)cc(C)c1Oc1ccc(C(C)(C)O)cc1-c1cn(C)c(=O)c2cc(-c3cnc(C4CCCC4)[nH]3)oc12 | -0.25 °C
* Cc1cc(F)cc(C)c1Oc1ccc(C(C)(C)O)cc1-c1cn(C)c(=O)c2cc(-c3cnc(C4CCCCC4)[nH]3)oc12 | -1 °C
* Cc1cc(F)cc(C)c1Oc1ccc(C(C)(C)O)cc1-c1cn(C)c(=O)c2cc(-c3cnc(C4CCC4)[nH]3)oc12 | -1 °C

* * *

- Species on record: Homo sapiens
- test summary: Selectivity index, ratio of IC50 for BRD4 BD1 (unknown origin) to IC50 of BRD4 BD2 (unknown origin)
Binary call on Ratio IC50: Criterion met from 2 upward, Criterion not met beneath that.

• CCS(=O)(=O)Nc1ccc(Oc2ccc(F)cc2F)c(-c2cn(C)c(=O)c3cc(-c4cnc(C(C)C)[nH]4)oc23)c1 = Criterion not met
• Cc1cc(F)cc(C)c1Oc1ccc(C(C)(C)O)cc1-c1cn(C)c(=O)c2cc(-c3cnc(C4CC4)[nH]3)oc12 = Criterion met
• Cc1cc(-c2cc3c(=O)n(C)cc(-c4cc(NS(=O)(=O)C5CC5)ccc4Oc4ccc(F)cc4F)c3o2)cc(C)c1OCCO = Criterion not met
• CCS(=O)(=O)Nc1ccc(Oc2ccc(F)cc2F)c(-c2cn(C)c(=O)c3cc(-c4cnc[nH]4)oc23)c1 = Criterion met
• Cc1cc(F)cc(C)c1Oc1ccc(C(C)(C)O)cc1-c1cn(C)c(=O)c2cc(-c3cnc(C4CCOCC4)[nH]3)oc12 = Criterion met
• Cc1cc(F)cc(C)c1Oc1ccc(C(C)(C)O)cc1-c1cn(C)c(=O)c2cc(-c3cnc(C4CCCCC4)[nH]3)oc12 = Criterion met
• Cc1cc(-c2cc3c(=O)n(C)cc(-c4cc(NS(=O)(=O)C(C)C)ccc4Oc4ccc(F)cc4F)c3o2)cc(C)c1OCCO = Criterion not met

* * *

- test summary: Metabolic stability in rat hepatocytes assessed as hepatic extraction ratio at 1 uM measured up to 60 mins in presence of NADPH by HPLC-MS/MS analysis
- Format: ADME, cell-based, Hepatocyte
- test context: read-out: ERH
measured metric: hepatic extraction ratio at 1 h, 1 µM

- O=C(c1ccc(F)cc1)C1CCN(CCn2c(=O)[nH]c3ccccc3c2=O)CC1 [KETANSERIN]: 0.81

* * *

- test summary: Metabolic stability in human hepatocytes assessed as hepatic extraction ratio at 1 uM measured up to 60 mins in presence of NADPH by HPLC-MS/MS analysis
- Assay type: ADME, cell-based, Hepatocyte
- test context: read-out: ERH
measured metric: hepatic extraction ratio at 1 h, 1 µM

* O=C(c1ccc(F)cc1)C1CCN(CCn2c(=O)[nH]c3ccccc3c2=O)CC1 | 0.712

* * *

- Species: Homo sapiens
- test summary: Selectivity index, ratio of IC50 for BRD4 BD1 (unknown origin) to IC50 of BRD4 BD2 (unknown origin)
Binned Ratio IC50; ranges: lowest: < 2; middle: ≥ 2 and < 40; highest: ≥ 40

- CCc1ncc(-c2cc3c(=O)n(C)cc(-c4cc(C(C)(C)O)ccc4Oc4c(C)cc(F)cc4C)c3o2)[nH]1: highest
- Cc1cc(-c2cc3c(=O)n(C)cc(-c4cc(C(C)(C)O)ccc4Oc4c(C)cc(F)cc4C)c3o2)cc(C)c1OCCCO: highest
- CCS(=O)(=O)Nc1ccc(Oc2ccc(F)cc2F)c(-c2cn(C)c(=O)c3cc(-c4ccccc4)oc23)c1: lowest
- Cc1cc(F)cc(C)c1Oc1ccc(C(C)(C)O)cc1-c1cn(C)c(=O)c2cc(-c3cnc(C(C)C)[nH]3)oc12: highest
- CCS(=O)(=O)Nc1ccc(Oc2ccc(F)cc2F)c(-c2cn(C)c(=O)c3cc(-c4ccc(CCCO)cc4)oc23)c1: lowest
- Cc1cc(-c2cc3c(=O)n(C)cc(-c4cc(CS(=O)(=O)C(C)C)ccc4Oc4ccc(F)cc4F)c3o2)cc(C)c1OCCO: lowest
- Cc1cc(F)cc(C)c1Oc1ccc(C(C)(C)O)cc1-c1cn(C)c(=O)c2cc(-c3cnc(C4CCOC4)[nH]3)oc12 (stereo not given): highest
- Cc1cc(-c2cc3c(=O)n(C)cc(-c4cc(CO)ccc4Oc4ccc(F)cc4F)c3o2)cc(C)c1OCCO: middle
- CCC(=O)Nc1ccc(Oc2ccc(F)cc2F)c(-c2cn(C)c(=O)c3cc(-c4cc(C)c(OCCO)c(C)c4)oc23)c1: middle
- CCS(=O)(=O)Nc1ccc(Oc2c(C)cc(F)cc2C)c(-c2cn(C)c(=O)c3cc(-c4cc(C)c(OCCO)c(C)c4)oc23)c1: middle
- Cc1cc(-c2cc3c(=O)n(C)cc(-c4cc(CS(=O)(=O)C(C)(C)C)ccc4Oc4ccc(F)cc4F)c3o2)cc(C)c1OCCO: middle
- Cc1cc(-c2cc3c(=O)n(C)cc(-c4cc(NS(C)(=O)=O)ccc4Oc4ccc(F)cc4F)c3o2)cc(C)c1OCCO: lowest
- Cc1cc(F)cc(C)c1Oc1ccc(C(C)(C)O)cc1-c1cn(C)c(=O)c2cc(-c3cnc(C4CCC4)[nH]3)oc12: highest
- CCc1cccc(CC)c1Oc1ccc(NS(=O)(=O)CC)cc1-c1cn(C)c(=O)c2cc(-c3cc(C)c(OCCO)c(C)c3)oc12: middle
- CCS(=O)(=O)Nc1ccc(Oc2ccc(F)cc2F)c(-c2cn(C)c(=O)c3cc(-c4cnc(C5CCC5)[nH]4)oc23)c1: middle

* * *

- Tested on: MOLM-13
- test summary: Antiproliferative activity against human MOLM-13 cells assessed as cell growth inhibition incubated for 72 hrs by Cell titre Glo-luminiscence cell viability assay
- Type: functional, cell-based
- test context: MOLM-13, 72 h
pIC50: −log10 of the molar value.
measured metric: pIC50

- Cc1cc(F)cc(C)c1Oc1ccc(C(C)(C)O)cc1-c1cn(C)c(=O)c2cc(-c3cnc(C4CCCC4)[nH]3)oc12: 6.59

* * *

- measurement target: Bromodomain-containing protein 2 (Homo sapiens, UniProt P25440)
- Sequence (P25440 whole entry, the tested form may be a part): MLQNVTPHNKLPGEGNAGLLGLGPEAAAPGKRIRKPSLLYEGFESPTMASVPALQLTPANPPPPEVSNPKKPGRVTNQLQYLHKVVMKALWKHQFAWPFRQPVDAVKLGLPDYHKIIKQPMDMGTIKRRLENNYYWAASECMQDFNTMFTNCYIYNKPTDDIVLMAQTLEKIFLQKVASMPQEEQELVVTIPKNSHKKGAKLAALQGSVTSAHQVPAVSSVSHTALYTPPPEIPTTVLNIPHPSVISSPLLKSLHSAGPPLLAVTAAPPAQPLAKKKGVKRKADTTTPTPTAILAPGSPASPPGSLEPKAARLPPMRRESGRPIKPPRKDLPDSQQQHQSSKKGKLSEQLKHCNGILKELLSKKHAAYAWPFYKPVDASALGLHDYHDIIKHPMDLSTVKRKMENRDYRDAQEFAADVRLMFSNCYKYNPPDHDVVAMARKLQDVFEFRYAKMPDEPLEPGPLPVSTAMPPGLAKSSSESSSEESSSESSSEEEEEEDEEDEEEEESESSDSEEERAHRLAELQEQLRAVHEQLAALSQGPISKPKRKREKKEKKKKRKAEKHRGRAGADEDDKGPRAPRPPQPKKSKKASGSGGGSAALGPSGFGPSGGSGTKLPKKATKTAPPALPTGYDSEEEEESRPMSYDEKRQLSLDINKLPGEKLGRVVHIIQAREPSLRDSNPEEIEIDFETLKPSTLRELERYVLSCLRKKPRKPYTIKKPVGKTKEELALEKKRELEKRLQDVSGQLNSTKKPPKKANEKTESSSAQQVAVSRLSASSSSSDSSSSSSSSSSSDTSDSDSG
- test summary: Binding affinity to His6-fused BRD2 BD1 (unknown origin) assessed as dissociation constant in PBS incubated for 1 hrs by biolayer interferometry analysis
pKd: −log10 of the molar value.
Quick list: pKd per entry.
measured metric: pKd

- Cc1cc(F)cc(C)c1Oc1ccc(C(C)(C)O)cc1-c1cn(C)c(=O)c2cc(-c3cnc(C4CCCC4)[nH]3)oc12: 5.92
- Cc1cc(F)cc(C)c1Oc1ccc(C(C)(C)O)cc1-c1cn(C)c(=O)c2cc(-c3cnc(C4CCCCC4)[nH]3)oc12: 5.97

* * *

- measurement target: Bromodomain-containing protein 4 (Homo sapiens, UniProt O60885)
- test summary: Inhibition of C-terminal His6-tagged BRD4 BD1 (unknown origin) using H-YSGRGK(Ac)GGK(Ac)GLGK(Ac)-GGAK(Ac)RHRK-Biotin-OH as substrate incubated for 1 hrs by HTRF assay
pIC50: −log10 of the molar value.
Binary call on pIC50: condition met from 8 upward, condition not met beneath that.

- CCc1cccc(CC)c1Oc1ccc(NS(=O)(=O)CC)cc1-c1cn(C)c(=O)c2cc(-c3cc(C)c(OCCO)c(C)c3)oc12: condition not met
- CCS(=O)(=O)Nc1ccc(Oc2ccc(F)cc2F)c(-c2cn(C)c(=O)c3cc(-c4cnc(C)[nH]4)oc23)c1: condition met
- CCS(=O)(=O)Nc1ccc(Oc2ccc(F)cc2F)c(-c2cn(C)c(=O)c3cc(-c4cc(C)c(OCCO)c(C)c4)oc23)c1: condition met
- Cc1cc(F)cc(C)c1Oc1ccc(C(C)(C)O)cc1-c1cn(C)c(=O)c2cc(-c3cnc(C(C)C)[nH]3)oc12: condition not met
- CCS(=O)(=O)Nc1ccc(Oc2ccc(F)cc2F)c(-c2cn(C)c(=O)c3cc(-c4cc(C)c(CCCO)c(C)c4)oc23)c1: condition met
